Source listed as ChEMBL document CHEMBL4706752.

Assay: Tmax in Sprague-Dawley rat at 4 mg/kg, po
Format: ADME, organism-based
Conditions: in vivo
Readout: Tmax

Incoming: Which Tmax is reported for this compound? `C[C@@](O)(CS(C)(=O)=O)C(=O)N[C@@H]1CC[C@@]2(S(=O)(=O)c3ccc(F)cc3)c3ccc(C(F)(C(F)(F)F)C(F)(F)F)nc3CC[C@@H]12`
Outgoing: 4 h

* * *

Target: Cytochrome P450 2C19 (Homo sapiens, UniProt P33261)
Sequence (P33261 whole entry): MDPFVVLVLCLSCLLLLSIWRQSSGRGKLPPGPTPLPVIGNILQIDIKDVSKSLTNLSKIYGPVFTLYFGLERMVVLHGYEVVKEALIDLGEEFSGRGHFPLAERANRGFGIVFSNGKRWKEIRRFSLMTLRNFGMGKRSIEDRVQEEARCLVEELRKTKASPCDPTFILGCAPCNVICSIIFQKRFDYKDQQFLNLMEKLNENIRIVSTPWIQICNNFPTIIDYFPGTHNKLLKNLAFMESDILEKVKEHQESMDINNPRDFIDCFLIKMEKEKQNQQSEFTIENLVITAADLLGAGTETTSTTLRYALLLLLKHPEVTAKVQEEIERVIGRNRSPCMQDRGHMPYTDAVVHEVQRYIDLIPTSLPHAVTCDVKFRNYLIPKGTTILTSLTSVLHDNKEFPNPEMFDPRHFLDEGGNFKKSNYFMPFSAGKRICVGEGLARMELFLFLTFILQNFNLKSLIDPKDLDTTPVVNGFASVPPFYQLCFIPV
pIC50: −log10 of the molar value.
Quick reference for pIC50 among some compounds

Observe how each entry below is paired with its result.
C[C@@](O)(CS(C)(=O)=O)C(=O)N[C@@H]1CC[C@@]2(S(=O)(=O)c3ccc(F)cc3)c3ccc(C(F)(C(F)(F)F)C(F)(F)F)nc3CC[C@@H]12 :: 4.72
CC(C)(O)C(=O)N[C@@H]1CC[C@@]2(S(=O)(=O)c3ccc(F)cc3)c3ccc(C(F)(C(F)(F)F)C(F)(F)F)nc3CC[C@@H]12 :: < 4.70
O=C(N[C@@H]1CC[C@@]2(S(=O)(=O)c3ccc(F)cc3)c3ccc(C(F)(C(F)(F)F)C(F)(F)F)cc3CC[C@@H]12)C1CCS(=O)(=O)CC1 :: < 4.70

Now take the following compound into account.
Incoming: What measured pIC50 is associated with `O=C(N[C@@H]1CC[C@@]2(S(=O)(=O)c3ccc(F)cc3)c3ccc(C(F)(C(F)(F)F)C(F)(F)F)nc3CC[C@@H]12)C1CCS(=O)(=O)CC1` on Cytochrome P450 2C19 (Homo sapiens, UniProt P33261)?
Outgoing: < 4.70
